# system: recombinant SARS-CoV-2 M^pro (Severe acute respiratory syndrome coronavirus 2 (2019-nCoV) (SARS-CoV-2))
# test: Inhibition of SARS-CoV-2 M^pro enzyme activity (fluorescent substrate assay)
# Format: biochemical
# recorded-conditions: inhibition of SARS-CoV-2 M^pro enzyme activity; values in nM; read-out: IC50
One threshold, 20 nM, splits the recorded IC50 values: lower ones are true (1), equal or higher ones are false (0).

Please review the entries below; each comes with its answer.
| compound | label-value |
| --- | --- |
| CC(C)(C(=O)N[C@H](Cc1ccccc1)C(=O)C(=O)NCc1ccccn1)n1cc(-c2ccccc2)cn1 | false (0) |
| O=C(N[C@H](C1CC1)C(F)(F)F)NC1(C(=O)N[C@H](Cc2ccccc2)C(=O)C(=O)NCc2ccccn2)CCC1 | false (0) |
| C[C@@H](NC(=O)COc1cccc(F)c1)C(=O)N[C@H](Cc1ccccc1)C(=O)C(=O)NCc1ccccn1 | false (0) |
| C[C@@H](NC(=O)c1ccc(Cl)cc1)C(=O)N[C@H](Cc1ccccc1)C(=O)C(=O)NCc1ccccn1 | true (1) |
| C[C@@H](NC(=O)c1cc(F)cc(Cl)c1)C(=O)N[C@H](Cc1ccccc1)C(=O)C(=O)NCc1ccccn1 | false (0) |
| COC[C@@H](NC(=O)C1CCC(F)(F)CC1)C(=O)N[C@H](Cc1ccccc1)C(=O)C(=O)NCc1ccccn1 | true (1) |
| C[C@@H](NC(=O)C1(F)CCCCC1)C(=O)N[C@H](Cc1ccccc1)C(=O)C(=O)NCc1ccccn1 | true (1) |
| CC(C)(C(=O)N[C@H](Cc1ccccc1)C(=O)C(=O)NCc1ccccn1)n1cc(Br)cn1 | false (0) |
| O=C(CC1CC(F)(F)C1)NC1(C(=O)N[C@H](Cc2ccccc2)C(=O)C(=O)NCc2nccs2)CC(F)(F)C1 | false (0) |
| CNC(=O)C[C@@H](NC(=O)CC1CC(F)(F)C1)C(=O)N[C@H](Cc1ccccc1)C(=O)C(=O)NCc1nccs1 | false (0) |

Challenge: Lab note: confirm whether the reported IC50 for this compound is below 20 nM, equality not counting. compound: "CC(C)(NC(=O)C1CCC(F)(F)CC1)C(=O)N[C@H](Cc1ccccc1)C(=O)C(=O)NCc1nccs1"
Response given: false (0)

Challenge: Lab note: confirm whether the reported IC50 for this compound is below 20 nM, equality not counting. compound: "C[C@H](OCc1ccccc1)C(=O)N[C@H](Cc1ccccc1)C(=O)C(=O)NCc1ccccn1"
Response given: false (0)

Challenge: Lab note: confirm whether the reported IC50 for this compound is below 20 nM, equality not counting. compound: C[C@@H](NC(=O)CC1CCOC(C)(C)C1)C(=O)N[C@H](Cc1ccccc1)C(=O)C(=O)NCc1ccccn1 (stereo partly shown)
Response given: false (0)

Challenge: Lab note: confirm whether the reported IC50 for this compound is below 20 nM, equality not counting. compound: "O=C(CNC(=O)C1CCC(F)(F)CC1)N[C@H](Cc1ccccc1)C(=O)C(=O)NCc1nccs1"
Response given: false (0)

Challenge: Lab note: confirm whether the reported IC50 for this compound is below 20 nM, equality not counting. compound: "O=C(CNC(=O)C1CCC(F)(F)CC1)N[C@H](Cc1ccccc1)C(=O)C(=O)NCc1cscn1"
Response given: false (0)

Challenge: Lab note: confirm whether the reported IC50 for this compound is below 20 nM, equality not counting. compound: "C[C@@H](NC(=O)CC1CCOCC1)C(=O)N[C@H](Cc1ccccc1)C(=O)C(=O)NCc1ccccn1"
Response given: false (0)

Challenge: Lab note: confirm whether the reported IC50 for this compound is below 20 nM, equality not counting. compound: CC(C)(C)C(NC(=O)C1CCC(F)(F)CC1)C(=O)N[C@H](Cc1ccccc1)C(=O)C(=O)NCc1ccccn1 (stereo partly shown)
Response given: false (0)

Challenge: Lab note: confirm whether the reported IC50 for this compound is below 20 nM, equality not counting. compound: "O=C(NCc1nccs1)C(=O)[C@@H](Cc1ccccc1)NC(=O)[C@H]1CC(F)(F)CN1C(=O)CC1CCC(F)(F)CC1"
Response given: true (1)

Challenge: Lab note: confirm whether the reported IC50 for this compound is below 20 nM, equality not counting. compound: "O=C(O)C[C@@H](NC(=O)CC1CC(F)(F)C1)C(=O)N[C@H](Cc1ccccc1)C(=O)C(=O)NCc1nccs1"
Response given: false (0)

Challenge: Lab note: confirm whether the reported IC50 for this compound is below 20 nM, equality not counting. compound: "COC[C@@H](NC(=O)NC1CC(F)(F)C1)C(=O)N[C@H](Cc1ccccc1)C(=O)C(=O)NCc1nccs1"
Response given: false (0)

Challenge: Lab note: confirm whether the reported IC50 for this compound is below 20 nM, equality not counting. compound: "NC(=O)C[C@@H](NC(=O)c1ccc(F)cc1)C(=O)N[C@H](Cc1ccccc1)C(=O)C(=O)NCc1ccccn1"
Response given: false (0)

Challenge: Lab note: confirm whether the reported IC50 for this compound is below 20 nM, equality not counting. compound: "C[C@@H](NC(=O)N1CCC(C(F)(F)F)CC1)C(=O)N[C@H](Cc1ccccc1)C(=O)C(=O)NCc1ccccn1"
Response given: true (1)

Challenge: Lab note: confirm whether the reported IC50 for this compound is below 20 nM, equality not counting. compound: "CC(C)(OCc1ccc(F)c(F)c1)C(=O)N[C@H](Cc1ccccc1)C(=O)C(=O)NCc1ccccn1"
Response given: true (1)

Challenge: Lab note: confirm whether the reported IC50 for this compound is below 20 nM, equality not counting. compound: "O=C(NCc1ccccn1)C(=O)[C@@H](Cc1ccccc1)NC(=O)C1(NC(=O)C2CCC(F)(F)CC2)Cc2ccccc2C1"
Response given: true (1)

Challenge: Lab note: confirm whether the reported IC50 for this compound is below 20 nM, equality not counting. compound: "O=C(Cn1cc(-c2cccc(F)c2)cn1)N[C@H](Cc1ccccc1)C(=O)C(=O)NCc1nccs1"
Response given: false (0)

Challenge: Lab note: confirm whether the reported IC50 for this compound is below 20 nM, equality not counting. compound: "COc1ccc(CC(=O)N[C@H](C)C(=O)N[C@H](Cc2ccccc2)C(=O)C(=O)NCc2ccccn2)cc1"
Response given: false (0)

Challenge: Lab note: confirm whether the reported IC50 for this compound is below 20 nM, equality not counting. compound: "O=C(NCc1ccccn1)C(=O)[C@@H](Cc1ccccc1)NC(=O)[C@@H]1CCCN1C(=O)[C@@H](NC(=O)c1cnccn1)C1CCCCC1"
Response given: true (1)

Challenge: Lab note: confirm whether the reported IC50 for this compound is below 20 nM, equality not counting. compound: "O=C(NCc1ccccn1)C(=O)[C@@H](Cc1ccccc1)NC(=O)[C@@H]1[C@H]2CCC[C@H]2CN1C(=O)CC1CCC(F)(F)CC1"
Response given: false (0)
